# Assay comment: Solubility test of crystal form B in different solvents
# Format: physicochemical
# Experimental parameters: simulated gastric fluid, thermodynamic from solid; 0.01N HCl, 24 h; read-out: Solubility (mg/mL) 24 h
Test readout: solubility at 24 h

Problem: What does the record list as solubility at 24 h for CCn1nnc(-c2ccc(OCCC(C)(C)CCN3CCN(c4ccnc(N)c4)S3(=O)=O)nc2)n1 [Compound 2] ?
Solution: > 986 mg/mL

---

# Assay comment: Solubility test of crystal form B in different solvents
# Type: physicochemical
# Experimental parameters: aqueous buffer, thermodynamic from solid; pH 7.5 buffer solution, 4 h; read-out: Solubility (mg/mL) 4 h
# Procedure: Solubility Test of Crystal Form B in Different Solvents Add 1^˜1.5 mg crystal form B of the compound 2 in volumetric flask, then single solvent or mixed solvent is added into the flask with multiple times until the solution become clear or solid particles disappear. The solubility of crystal form B in different solvents is determined thereby.
Test readout: solubility at 4 h

Problem: Which solubility at 4 h is listed for CCn1nnc(-c2ccc(OCCC(C)(C)CCN3CCN(c4ccnc(N)c4)S3(=O)=O)nc2)n1 ?
Solution: < 0.1 mg/mL

---

# Assay comment: Solubility test of crystal form B in different solvents
# Format: physicochemical
# Experimental parameters: saline or isotonic, thermodynamic from solid; normal saline, 4 h; read-out: Solubility (mg/mL) 4 h
# Description: Solubility Test of Crystal Form B in Different Solvents Add 1^˜1.5 mg crystal form B of the compound 2 in volumetric flask, then single solvent or mixed solvent is added into the flask with multiple times until the solution become clear or solid particles disappear. The solubility of crystal form B in different solvents is determined thereby.
Test readout: solubility at 4 h (mg/mL)
Lab book: enter the figure in mg/mL, no units written.

Problem: Entry under review: CCn1nnc(-c2ccc(OCCC(C)(C)CCN3CCN(c4ccnc(N)c4)S3(=O)=O)nc2)n1 . Reported solubility at 4 h?
Solution: 42.9

---

# System: HFMD virus EV71
# Assay comment: EV71 in-vitro cytopathic effect (CPE) test
# Format: cell-based
# Experimental parameters: Enterovirus A, EV71, 72 h; RD cells, 3 days, CCK8 readout; read-out: EC50 by EC71 CPE test, EV71
Test readout: EC50

Problem: Which EC50 is listed for CCn1nnc(-c2ccc(OCCC(C)(C)CCN3CCN(c4ccnc(N)c4)S3(=O)=O)nc2)n1 [Compound 1] ?
Solution: ≤ 10 nM

---

# Assay comment: Solubility test of crystal form B in different solvents
# Type: physicochemical
# Experimental parameters: aqueous buffer, thermodynamic from solid; pH 3.5 buffer solution, 24 h; read-out: Solubility (mg/mL) 24 h
# Method: Solubility Test of Crystal Form B in Different Solvents Add 1^˜1.5 mg crystal form B of the compound 2 in volumetric flask, then single solvent or mixed solvent is added into the flask with multiple times until the solution become clear or solid particles disappear. The solubility of crystal form B in different solvents is determined thereby.
Test readout: solubility at 24 h (mg/mL)
Please respond with the number in mg/mL and leave the unit unwritten.

Problem: What value of solubility at 24 h has been recorded for this entry: CCn1nnc(-c2ccc(OCCC(C)(C)CCN3CCN(c4ccnc(N)c4)S3(=O)=O)nc2)n1
Solution: 186

---

# Assay comment: Solubility test of crystal form B in different solvents
# Assay type: physicochemical
# Experimental parameters: aqueous buffer, thermodynamic from solid; pH 6.5 buffer solution, 24 h; read-out: Solubility (mg/mL) 24 h
Test readout: solubility at 24 h

Problem: Endpoint output: solubility at 24 h of CCn1nnc(-c2ccc(OCCC(C)(C)CCN3CCN(c4ccnc(N)c4)S3(=O)=O)nc2)n1 [Compound 2] . Value?
Solution: < 0.1 mg/mL
